# Assay text: Cytotoxicity against human MRC5 cells measured after 24 hrs by neutral red uptake assay
# Assay type: cell-based
Readout kind: CC50 at 24 h (µM)
Please respond with the number in µM and leave the unit unwritten.

query: Need CC50 at 24 h of Cc1cn(C2CCN(Cc3cc(Oc4ccc(/C=N/NC(=S)S)c(O)c4)c4ccccc4n3)CC2)c(=O)[nH]c1=O , thanks.
result: 1.45

query: Need CC50 at 24 h of Cc1cn(C2CCN(Cc3cc(Oc4ccc(C(=O)NO)cc4)c4ccccc4n3)CC2)c(=O)[nH]c1=O , thanks.
result: 32.2

query: Need CC50 at 24 h of Cc1cn(C2CCN(Cc3cc(OCCOC(=O)c4ccc(O)c(O)c4)c4ccccc4n3)CC2)c(=O)[nH]c1=O , thanks.
result: 6.39

----------
# Assay text: Cytotoxicity against human MRC5 cells measured after 24 hrs by neutral red uptake assay
# Type: cell-based
Consider the following compounds; for each one, report its CC50 at 24 h.

query: Need CC50 at 24 h of Cc1cn(C2CCN(Cc3cc(NCCO)c4ccccc4n3)CC2)c(=O)[nH]c1=O , thanks.
result: > 64 µM

query: Need CC50 at 24 h of Cc1cn(C2CCN(Cc3cc(Oc4ccc(O)cc4)c4ccccc4n3)CC2)c(=O)[nH]c1=O , thanks.
result: > 64 µM

query: Need CC50 at 24 h of CCc1nc2ccc(Cl)cn2c1C(=O)N1CCC(n2cc(C)c(=O)[nH]c2=O)CC1 , thanks.
result: > 64 µM

query: Need CC50 at 24 h of Cc1cn(C2CCN(c3ccc(CNC(=O)c4ccc([N+](=O)[O-])cc4[N+](=O)[O-])cc3)CC2)c(=O)[nH]c1=O , thanks.
result: > 64 µM

query: Need CC50 at 24 h of Cc1cn(C2CCN(Cc3cc(Oc4ccc(C(=O)O)c(O)c4)c4ccccc4n3)CC2)c(=O)[nH]c1=O , thanks.
result: > 64 µM

query: Need CC50 at 24 h of Cc1cn(C2CCN(Cc3ccc(CNC(=O)c4cc([N+](=O)[O-])cc([N+](=O)[O-])c4)cc3)CC2)c(=O)[nH]c1=O , thanks.
result: > 64 µM

query: Need CC50 at 24 h of Cc1cn(C2CCN(Cc3ccc4cccc(O)c4n3)CC2)c(=O)[nH]c1=O , thanks.
result: 54 µM

query: Need CC50 at 24 h of CCc1nc2ccc(Cl)cn2c1C(=O)NCc1ccc(N2CCC(n3cc(C)c(=O)[nH]c3=O)CC2)cc1 , thanks.
result: > 64 µM

query: Need CC50 at 24 h of Cc1cn(C2CCN(Cc3cc(OCCO)c4ccccc4n3)CC2)c(=O)[nH]c1=O , thanks.
result: > 64 µM

----------
Consider the following molecules; for each one, report its CC50 at 24 h.
# Assay text: Cytotoxicity against human MRC5 cells measured after 24 hrs by neutral red uptake assay
# Assay type: cell-based

query: Need CC50 at 24 h of Cc1cn(C2CCN(Cc3cccc(-c4ccccn4)n3)CC2)c(=O)[nH]c1=O , thanks.
result: > 64 µM

query: Need CC50 at 24 h of Cc1cn(C2CCN(Cc3cc(=O)c4ccccc4[nH]3)CC2)c(=O)[nH]c1=O , thanks.
result: > 64 µM

query: Need CC50 at 24 h of Cc1cn(C2CCN(Cc3cc(NCCOC(=O)c4ccc(O)c(O)c4)c4ccccc4n3)CC2)c(=O)[nH]c1=O , thanks.
result: > 64 µM
